The measurements presented in this section are drawn from paper PMC9866588.

We begin with a simple list: items and their reported GI50.
Tested on: Raji (Burkitt lymphoma) cells
Assay: MTT antiproliferative assay, Raji
Assay type: cell-based, human
Details: Homo sapiens, Raji; 72 h, MTT, mean ± SD of three independent experiments
Write the value in µM as a bare number.

# Molecule, GI50 (µM)
measured = [
    ("O=C(NCCNc1ccnc2cc(Cl)ccc12)c1ccc(-c2nc3cc(C4=NCCN4)ccc3[nH]2)cc1 [Compound 12c]", 20.8),
    ("N=C(N)c1ccc2[nH]c(-c3ccc(N4CCN(c5ccnc6cc(Cl)ccc56)CC4)cc3)nc2c1", 37.7),
    ("CC(C)NC(=N)c1ccc2[nH]c(-c3ccc(C(=O)NCCNc4ccnc5cc(Cl)ccc45)cc3)nc2c1 [Compound 12b]", 12.8),
    ("Clc1ccc2c(N3CCN(c4ccc(-c5nc6ccccc6[nH]5)cc4)CC3)ccnc2c1", 3.8),
]

# evaluate next
Inquiry: For the molecule O=C(NCCNc1ccnc2cc(Cl)ccc12)c1ccc(-c2nc3ccccc3[nH]2)cc1 [Compound 12d] , what GI50 is on record?
Reply text: 57.7

* * *

System: CCRF-CEM (human acute lymphoblastic leukemia) cells
Test: MTT antiproliferative assay, CCRF-CEM
Assay type: cell-based
Details: Homo sapiens, CCRF-CEM; 72 h, MTT, mean ± SD of three independent experiments
We begin with a simple list: items and their reported GI50.
Write the value in µM as a bare number.

Example cases with answers are listed next.
# Compound, Experimental target, GI50 [µM]
measured = [
    ("CC(C)NC(=N)c1ccc2[nH]c(-c3ccc(C(=O)NCCNc4ccnc5cc(Cl)ccc45)cc3)nc2c1 [Compound 12b]", "CCRF-CEM (human acute lymphoblastic leukemia) cells", 43.3),
    ("Clc1ccc2c(N3CCN(c4ccc(-c5nc6cc(C7=NCCN7)ccc6[nH]5)cc4)CC3)ccnc2c1", "CCRF-CEM (human acute lymphoblastic leukemia) cells", 25.4),
    ("O=C(NCCNc1ccnc2cc(Cl)ccc12)c1ccc(-c2nc3ccccc3[nH]2)cc1 [Compound 12d]", "CCRF-CEM (human acute lymphoblastic leukemia) cells", 17.2),
    ("N=C(N)c1ccc2[nH]c(-c3ccc(N4CCN(c5ccnc6cc(Cl)ccc56)CC4)cc3)nc2c1", "CCRF-CEM (human acute lymphoblastic leukemia) cells", 32.1),
    ("CC(C)NC(=N)c1ccc2[nH]c(-c3ccc(N4CCN(c5ccnc6cc(Cl)ccc56)CC4)cc3)nc2c1", "CCRF-CEM (human acute lymphoblastic leukemia) cells", 39.6),
]

Inquiry: For the compound Clc1ccc2c(Nc3cccc(-c4nc5ccccc5[nH]4)c3)ccnc2c1 , what GI50 is on record?
Reply text: 8.2

Inquiry: Moving on to Clc1ccc2c(N3CCN(c4ccc(-c5nc6ccccc6[nH]5)cc4)CC3)ccnc2c1
Reply text: 5

Inquiry: Moving on to Clc1ccc2[nH]c(-c3cccc(Nc4ccnc5cc(Cl)ccc45)c3)nc2c1
Reply text: 15.6

Inquiry: Moving on to Clc1ccc2[nH]c(-c3ccc(N4CCN(c5ccnc6cc(Cl)ccc56)CC4)cc3)nc2c1
Reply text: 41

Inquiry: Moving on to O=C(NCCNc1ccnc2cc(Cl)ccc12)c1ccc(-c2nc3cc(C4=NCCN4)ccc3[nH]2)cc1 [Compound 12c]
Reply text: 56.3

Inquiry: Moving on to N=C(N)c1ccc2[nH]c(-c3ccc(C(=O)NCCNc4ccnc5cc(Cl)ccc45)cc3)nc2c1 [Compound 12a]
Reply text: 20
